Entries and their IC50
target: G9a (913-1913) (Homo sapiens, UniProt Q96KQ7); construct: G9a (913-1913); assay: Filter-paper methyltransferase assay, G9a; assay type: biochemical; details: substrate H3 (1-21 aa), 20 nM enzyme, 1 h
Sequence (Q96KQ7 913-1193 limits assumed): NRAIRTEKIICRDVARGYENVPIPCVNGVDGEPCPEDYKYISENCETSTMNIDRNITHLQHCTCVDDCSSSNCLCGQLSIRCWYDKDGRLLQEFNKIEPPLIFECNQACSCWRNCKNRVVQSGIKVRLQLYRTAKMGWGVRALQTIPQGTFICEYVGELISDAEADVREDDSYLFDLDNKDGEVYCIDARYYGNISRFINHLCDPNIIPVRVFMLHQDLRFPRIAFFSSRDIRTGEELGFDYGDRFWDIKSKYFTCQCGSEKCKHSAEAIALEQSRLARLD

INSERT INTO results (compound, reported_property, result) VALUES
  ('CC(C)(C)c1ccc(NC(=O)NCCC[C@H](N)C[C@H]2O[C@@H](n3cnc4c(N)ncnc43)[C@H](O)[C@@H]2O)cc1 [Example 27]', 'IC50', '> 100 µM'),
  ('CC(C)(C)c1ccc(NC(=O)NCCC[C@H](CNCc2ccccc2)C[C@H]2O[C@@H](n3cnc4c(N)ncnc43)[C@@H](O)C2O)cc1 (stereo partly drawn) [Example 29]', 'IC50', '> 100 µM');

Let us move to another entry and its IC50.
Output IC50 of Nc1ncnc2c1ncn2[C@@H]1O[C@H](C[C@@H](N)CCCNC(=O)Nc2ccccc2)[C@@H](O)[C@H]1O [Example 26]
> 100 µM

====

Target: GLP1 (951-1235) (Homo sapiens, UniProt Q9H9B1)
Construct: GLP1 (951-1235)
Sequence (Q9H9B1 982-1266): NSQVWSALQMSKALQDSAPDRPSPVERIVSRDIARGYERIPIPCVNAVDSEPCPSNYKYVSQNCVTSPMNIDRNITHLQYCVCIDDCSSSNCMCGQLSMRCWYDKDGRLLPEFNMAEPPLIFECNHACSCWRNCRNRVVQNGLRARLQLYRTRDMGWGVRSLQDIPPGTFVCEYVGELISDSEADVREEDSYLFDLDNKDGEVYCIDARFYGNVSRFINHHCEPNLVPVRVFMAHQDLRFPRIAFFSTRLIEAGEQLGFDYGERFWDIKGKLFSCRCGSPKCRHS
Assay: Filter-paper methyltransferase assay, GLP1
Type: biochemical
Conditions: substrate H3 (1-21 aa), 10 nM enzyme, 1 h
Entries and their IC50

INSERT INTO results (molecule, target_desc, reported_property, result) VALUES
  ('CC(C)(C)c1ccc(NC(=O)NCCC[C@H](CNCc2ccccc2)C[C@H]2O[C@@H](n3cnc4c(N)ncnc43)[C@@H](O)C2O)cc1 (some centres unmarked) [Example 29]', 'GLP1 (951-1235) (Homo sapiens, UniProt Q9H9B1)', 'IC50', '> 100 µM'),
  ('Nc1ncnc2c1ncn2[C@@H]1O[C@H](C[C@@H](N)CC[C@H](N)C(=O)O)[C@@H](O)[C@H]1O [Sinefungin, sinefungin, reference compound]', 'GLP1 (951-1235) (Homo sapiens, UniProt Q9H9B1)', 'IC50', '32 µM');

Report the value of IC50 obtained on GLP1 (951-1235) (Homo sapiens, UniProt Q9H9B1) for Nc1ncnc2c1ncn2[C@@H]1O[C@H](C[C@@H](N)CCCNC(=O)Nc2ccccc2)[C@@H](O)[C@H]1O [Example 26] .
> 100 µM

Report the value of IC50 obtained on GLP1 (951-1235) (Homo sapiens, UniProt Q9H9B1) for Nc1ncnc2c1ncn2[C@@H]1O[C@H](CSCC[C@H](N)C(=O)O)[C@@H](O)[C@H]1O [SAH, S-adenosyl homocysteine, reference compound] .
5.03 µM

Report the value of IC50 obtained on GLP1 (951-1235) (Homo sapiens, UniProt Q9H9B1) for CC(C)(C)c1ccc(NC(=O)NCCC[C@H](N)C[C@H]2O[C@@H](n3cnc4c(N)ncnc43)[C@H](O)[C@@H]2O)cc1 [Example 27] .
> 100 µM
